Readings of activation for the listed compounds
assay: insulin gene promoter stimulation in islet cells – imaging, TRM-6 cells, eGFP reporter, cell count, primary screen (AID 1296); conditions: at 2 µM; stronger effect = higher value, plate-scaled: unstimulated 0, stimulated control 100;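 on activation: share of cells whose green reporter signal exceeds an intensity cutoff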
In all, about 130,000 compounds went through this assay and about 1,000 (0.77%) were called active. About 1% were inconclusive and are not listed. The sample as a whole holds a higher share of actives than the screen did.
Give a bare numeral; the unit % is implied.

Illustrative cases are given below, each with its answer.
{"columns": ["COMPOUND", "MEASUREMENT UNIT", "activation"],
 "data": [
  ["CC(CC(=O)O)C(=O)c1ccc(Cl)c([N+](=O)[O-])c1 (stereo not given)", "%", 6.67],
  ["COC(=O)c1[nH]c2ccccc2c1NC(=O)CN1CCCc2ccccc21", "%", 209],
  ["O=C(CSc1ncnc2scc(-c3ccccc3)c12)NCc1ccc2c(c1)OCO2", "%", 0],
  ["Cc1cccc(-n2cc(CN3CCN(C(=O)c4ncn[nH]4)CC3)c(-c3cccc(F)c3)n2)c1", "%", 0],
  ["Cc1ccc(N/N=C2\\COC(C)(C)CC2=O)cc1", "%", 7.14]
]}

Then there is this compound:
O=C1C(Cl)=C(N2CCOCC2)C(=O)N1c1ccccc1 yielded activation of 0

====

Readings of normalized cell count for the listed compounds
assay: insulin gene promoter stimulation in islet cells – imaging, TRM-6 cells, eGFP reporter, cell count, primary screen (AID 1296); conditions: at 2 µM; measured here: cell count (toxicity);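 on normalized cell count: cells counted after 48 h compound exposure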
Out of some 130,000 compounds screened, about 1,000 (0.77%) were called active. Inconclusive results (about 1%) are left out. The entries come from a sample that favours actives as a whole.
Give a bare numeral; the unit % is implied.

Illustrative cases are given below, each with its answer.
{"columns": ["COMPOUND", "normalized cell count (%)"],
 "data": [
  ["CC1(C)CC(=O)c2cnc3nc4ccccc4n3c2C1", 56.3],
  ["CCS(=O)(=O)Nc1cc(C(=O)OC)ccc1C(=O)OC", 104],
  ["CCC(C)NC(=O)c1nn(C)c(=O)c2ccccc12 (stereo not drawn)", 169]
]}

Cn1nc(-c2ccc(N3CCOCC3)c(NC(=O)c3ccccc3)c2)c2ccccc2c1=O yielded normalized cell count of 95.6

COc1ccc(OC(C)C(=O)Nc2cccnc2)cc1 (stereo not drawn) yielded normalized cell count of 50

COc1ccccc1-c1nc(SC)n[nH]1 yielded normalized cell count of 131

COc1ccc(C(=O)NC(=S)NNC(=O)CCc2ccccc2)cc1 yielded normalized cell count of 91.6

CCn1c(SCC(=O)Nc2nccs2)nnc1-c1ccco1 yielded normalized cell count of 131

COc1ccc(CS(=O)/C(Cl)=C(/Cl)C(=O)Nc2ccc(OC)nc2)cc1 (stereo not drawn) yielded normalized cell count of 10.6

COC(=O)[C@H]1Cc2cnoc2C[C@]1(C)C(=O)O yielded normalized cell count of 176

====

assay: insulin gene promoter stimulation in islet cells – imaging, TRM-6 cells (human fetal islet line), eGFP reporter, cell count, primary screen (AID 1296); details: at 2 µM, plate-scaled: unstimulated 0, stimulated control 100
Among all 130,000 compounds or so, about 1,000 (0.77%) were called active. Another 1% or so got no clear call; they are omitted.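 The calls were made as follows: active = activation at 2 µM above a set limit, confirmed on inspection of the cell images; inconclusive = above the set limit but not confirmed on image inspection; inactive = the rest.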 Only a selection was taken, and actives are over-represented in it overall.
Just give me one of these, please: 1.0 = active, 0.0 = inactive

Sample answers from the record:
{"columns": ["COMPOUND", "LABEL CLASS"],
 "data": [
  ["CCCC(=O)Nc1ccc(C(=O)NCCCn2ccnc2)cc1", 1.0],
  ["COc1ccc(OC(C)C(=O)Nc2cccnc2)cc1 (stereo unspecified)", 0.0],
  ["O=C(Nc1ccccc1C(=O)NCCCn1ccnc1)c1ccc(Cl)cc1Cl", 0.0],
  ["COc1ccc(CS(=O)/C(Cl)=C(/Cl)C(=O)Nc2ccc(OC)nc2)cc1 (stereo unspecified)", 1.0]
]}

QUERY: How was O=Cc1cn(Cc2ccccc2)nc1-c1cccnc1 classified in this test?
RESULT: 0.0

QUERY: How was COc1cc(NC(=S)NCCSc2ccc(C)cc2)cc(OC)c1 classified in this test?
RESULT: 0.0
